Recorded measurements of Activity, one per entry
- System: MDCK
- protocolDetails: Cytotoxicity against MDCK cells after 48 hrs by MTT assay
- Format: cell-based, Canis lupus familiaris
- conditionSet: dog
Output spec: scalar in µg/mL, unitless text.

                                   compound  systemtested  recordedmeasurement
0           Clc1ncn(C23CC4CC(CC(C4)C2)C3)n1          MDCK                  583
1       OC12CC3CC(C1)CC(n1nn[nH]c1=S)(C3)C2          MDCK                  146
2  CCc1nnn(C23CC4CC(CC(C(C)N)(C4)C2)C3)n1.Cl (stereo not given)          MDCK                  299
3  CC(N)C12CC3CC(C1)CC(n1ncnn1)(C3)C2.Cl (stereo not given)          MDCK                  423

Now, please, on to the next compound.
Query block: Param readout= Activity; system= MDCK; entry= CC(N)C12CC3CC(CC(C3)C1)C2 (stereo not given) ; returns value.
Result block: 60
